- ASSAY_PROCEDURE: Half life in C57BL/6 mouse at 3 mg/kg, po
- Assay type: ADME, organism-based
- CONDITION_LABEL: in vivo
READOUT: half-life (h)
Field: numeric (h). Do not append units.

Query string: Would you mind telling me what half-life value was observed for "O=S(=O)(Nc1ccc(S(=O)(=O)C(F)(F)F)cc1Oc1cc(F)cc(F)c1)c1ccccc1" ?
Result string: 5.39

====

- ASSAY_PROCEDURE: Tmax in C57BL/6 mouse at 3 mg/kg, po
- Format: ADME, organism-based
- CONDITION_LABEL: in vivo
READOUT: Tmax

Query string: Would you mind telling me what Tmax value was observed for "O=S(=O)(Nc1ccc(S(=O)(=O)C(F)(F)F)cc1Oc1cc(F)cc(F)c1)c1ccccc1" ?
Result string: 2 h
